- assayed.target: the molecule itself
- test.method.notes: cross-linking; membrane fraction of cells expressing a single-Cys mutant of HA-Sho1*; homo-trifunctional crosslinker TMEA; SDS–PAGE, anti-HA blot
measured.quantity: stoichiometry N
Reply: number alone, nothing else.

HA-Sho1* G50C (natural protein, Saccharomyces cerevisiae, UniProt P40073 1-367, looked up, Sho1, S. cerevisiae, Cys-less (C78S C85S) with a single Cys in TM1; source: S. cerevisiae KT079 (sho1Δ), GAL1 promoter, in membrane fraction; in intact cells; not shown: HA, N-terminal, kept) MSISSKIRPTPRKPSRMATDHSFKMKKFYADPFAISSISLAIVSWVIAICGSISSASTNESFPRFTWWGIVYQFLIISSLMLFYSFDLVDHYRIFITTSIAVAFVYNTNSATNLVYADGPKKAAASAGVILLSIINLIWILYYGGDNASPTNRWIDSFSIKGIRPSPLENSLHRARRRGNRNTTPYQNNVYNDAIRDSGYATQFDGYPQQQPSHTNYVSSTALAGFENTQPNTSEAVNLHLNTLQQRINSASNAKETNDNSNNQTNTNIGNTFDTDFSNGNTETTMGDTLGLYSDIGDDNFIYKAKALYPYDADDDDAYEISFEQNEILQVSDIEGRWWKARRANGETGIIPSNYVQLIDGPEEMHR = 2
HA-Sho1*-A124C (natural protein, Saccharomyces cerevisiae, UniProt P40073 1-367, looked up, Sho1, S. cerevisiae, Cys-less (C78S C85S) with a single Cys in TM4; source: S. cerevisiae KT079 (sho1Δ), GAL1 promoter, in membrane fraction; S. cerevisiae KY590-1, GAL1 promoter, in intact cells, then lysate; not shown: HA, N-terminal, kept) MSISSKIRPTPRKPSRMATDHSFKMKKFYADPFAISSISLAIVSWVIAIGGSISSASTNESFPRFTWWGIVYQFLIISSLMLFYSFDLVDHYRIFITTSIAVAFVYNTNSATNLVYADGPKKACASAGVILLSIINLIWILYYGGDNASPTNRWIDSFSIKGIRPSPLENSLHRARRRGNRNTTPYQNNVYNDAIRDSGYATQFDGYPQQQPSHTNYVSSTALAGFENTQPNTSEAVNLHLNTLQQRINSASNAKETNDNSNNQTNTNIGNTFDTDFSNGNTETTMGDTLGLYSDIGDDNFIYKAKALYPYDADDDDAYEISFEQNEILQVSDIEGRWWKARRANGETGIIPSNYVQLIDGPEEMHR = 2

Now turn to the next protein.
Item: HA-Sho1* T66C (natural protein, Saccharomyces cerevisiae, UniProt P40073 1-367, looked up, Sho1, S. cerevisiae, Cys-less (C78S C85S) with a single Cys in TM2; also called Sho1-FL-T66C; source: S. cerevisiae KT079 (sho1Δ), GAL1 promoter, in membrane fraction; not shown: HA, N-terminal, kept) MSISSKIRPTPRKPSRMATDHSFKMKKFYADPFAISSISLAIVSWVIAIGGSISSASTNESFPRFCWWGIVYQFLIISSLMLFYSFDLVDHYRIFITTSIAVAFVYNTNSATNLVYADGPKKAAASAGVILLSIINLIWILYYGGDNASPTNRWIDSFSIKGIRPSPLENSLHRARRRGNRNTTPYQNNVYNDAIRDSGYATQFDGYPQQQPSHTNYVSSTALAGFENTQPNTSEAVNLHLNTLQQRINSASNAKETNDNSNNQTNTNIGNTFDTDFSNGNTETTMGDTLGLYSDIGDDNFIYKAKALYPYDADDDDAYEISFEQNEILQVSDIEGRWWKARRANGETGIIPSNYVQLIDGPEEMHR | stoichiometry N: 3
